# tested_target: WT KCNT1 channels (Homo sapiens)
# Construct: YFP-6His
# Sequence (Q5JUK3 1-1235 isoform Q5JUK3-3): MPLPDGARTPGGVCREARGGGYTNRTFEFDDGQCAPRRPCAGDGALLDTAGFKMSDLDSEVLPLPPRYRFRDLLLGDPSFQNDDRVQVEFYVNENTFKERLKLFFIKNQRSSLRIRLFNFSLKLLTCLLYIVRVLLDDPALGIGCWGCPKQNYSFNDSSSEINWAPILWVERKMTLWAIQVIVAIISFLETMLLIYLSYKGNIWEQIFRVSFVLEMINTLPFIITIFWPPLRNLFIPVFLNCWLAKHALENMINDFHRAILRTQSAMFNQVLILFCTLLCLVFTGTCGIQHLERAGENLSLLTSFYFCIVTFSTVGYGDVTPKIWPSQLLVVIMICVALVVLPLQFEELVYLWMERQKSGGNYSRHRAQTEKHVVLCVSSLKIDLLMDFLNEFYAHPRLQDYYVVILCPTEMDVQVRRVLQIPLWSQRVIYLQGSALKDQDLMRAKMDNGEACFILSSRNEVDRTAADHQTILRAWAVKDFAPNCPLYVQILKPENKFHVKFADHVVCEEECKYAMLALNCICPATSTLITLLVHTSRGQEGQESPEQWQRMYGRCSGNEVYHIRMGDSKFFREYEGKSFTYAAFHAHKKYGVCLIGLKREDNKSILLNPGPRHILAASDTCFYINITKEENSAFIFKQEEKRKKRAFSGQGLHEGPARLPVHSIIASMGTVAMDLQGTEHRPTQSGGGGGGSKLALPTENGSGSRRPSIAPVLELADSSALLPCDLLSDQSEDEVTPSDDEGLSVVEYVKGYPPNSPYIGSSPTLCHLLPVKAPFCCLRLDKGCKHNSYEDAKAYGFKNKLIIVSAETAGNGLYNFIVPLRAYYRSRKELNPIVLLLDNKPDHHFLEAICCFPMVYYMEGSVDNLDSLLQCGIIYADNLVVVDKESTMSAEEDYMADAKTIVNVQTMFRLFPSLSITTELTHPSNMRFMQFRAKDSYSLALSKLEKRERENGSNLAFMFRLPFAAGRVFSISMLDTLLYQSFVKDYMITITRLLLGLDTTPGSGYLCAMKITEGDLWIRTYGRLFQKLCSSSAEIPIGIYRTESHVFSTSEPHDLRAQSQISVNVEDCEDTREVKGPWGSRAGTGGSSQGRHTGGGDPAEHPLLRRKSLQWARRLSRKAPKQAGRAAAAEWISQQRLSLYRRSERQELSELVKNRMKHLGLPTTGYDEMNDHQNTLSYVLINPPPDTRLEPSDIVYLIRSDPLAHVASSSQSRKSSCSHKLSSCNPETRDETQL
# assay_notes: Inside-out patch clamp of HEK293T cells expressing WT KCNT1 channels
# condition_summary: WT, inside-out patches, mean ± SEM
# Description: The CHO cells were cultured in Dulbecco's modified Eagle's Medium (ThermoFisher, UK) supplemented with 10% (v/v) fetal bovine serum, 50 U/ml penicillin and 0.05 mg/ml streptomycin, and incubated at 37°C in 5% CO2 atmosphere. For whole cell recording of WT/Y796H KCNT1, CHO cells were transiently co‐transfected with concatemeric WT/Y796H and EYFP, as described previously.[29] For electrophysiological experiments, cells were plated onto borosilicate glass cover slips and used 2 to 4 days later. […]
Structures can show the parent of a compound that is named as a salt.
The following compounds are shown together with reported IC50 values.
Give your result in nM as a bare value.

compound | tested_target | IC50 / nM
Cc1c(O)cccc1C(=O)N[C@@H](CSc1ccccc1)[C@H](O)CN1C[C@H]2CCCC[C@H]2C[C@H]1C(=O)NC(C)(C)C [nelfinavir mesylate] | WT KCNT1 channels (Homo sapiens) | 14.3

Query block: Give the value of IC50 reported for the following: O=C(OCCN1CCN(c2cccc(C(F)(F)F)c2)CC1)c1ccccc1Nc1ccnc2cc(C(F)(F)F)ccc12
Result block: 12.6

Query block: Return IC50 for the following compound: CC(C)c1c(C(=O)Nc2ccccc2)c(-c2ccccc2)c(-c2ccc(F)cc2)n1CC[C@@H](O)C[C@@H](O)CC(=O)O
Result block: 1900
